target: Circumsporozoite protein (CSP) (Plasmodium falciparum (isolate 3D7), UniProt Q7K740); assay: AVEXIS screen signal:noise (double-corrected)
Sequence (Q7K740 19-374): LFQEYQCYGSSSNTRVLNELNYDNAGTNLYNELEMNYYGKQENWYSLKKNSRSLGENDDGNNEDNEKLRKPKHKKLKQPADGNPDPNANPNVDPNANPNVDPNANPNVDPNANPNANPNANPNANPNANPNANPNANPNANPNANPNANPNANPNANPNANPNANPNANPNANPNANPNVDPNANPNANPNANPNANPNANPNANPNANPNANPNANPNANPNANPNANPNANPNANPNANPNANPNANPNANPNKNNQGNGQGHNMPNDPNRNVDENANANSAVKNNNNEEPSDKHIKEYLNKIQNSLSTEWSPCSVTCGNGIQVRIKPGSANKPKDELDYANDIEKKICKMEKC
No end group written: not given here.
VALUE TYPE: binding score

INSERT INTO assay_data (binder, reading) VALUES
  ('ADP348 (protein, bait human Fc-tagged dimer) MAASAGAGAVIAAPDSRRWLWSVLAAALGLLTAGVSALEVYTPKEIFVANGTQGKLTCKFKSTSTTGGLTSVSWSFQPEGADTTVSFFHYSQGQVYLGNYPPFKDRISWAGDLDKKDASINIENMQFIHNGTYICDVKNPPDIVVQPGHIRLYVVEKENLPVFP', 0.706),
  ('ADP101 (protein, also: human Fc-tagged dimer) MWSTRSPNSTAWPLSLEPDPGMASASTTMHTTTIAEPDPGMSGWPDGRMETSTPTIMD', 1.1),
  ('ADP118 (protein, bait human Fc-tagged dimer) MARAAALLPSRSPPTPLLWPLLLLLLLETGAQDVRVQVLPEVRGQLGGTVELPCHLLPPVPGLYISLVTWQRPDAPANHQNVAAFHPKMGPSFPSPKPGSERLSFVSAKQSTGQDTEAELQDATLALHGLTVEDEGNYTCEFATFPKGSVRGMTWLRVIAKPKNQAEAQKVTFSQDPTTVALCISKEGRPPARISWLSSLDWEAKETQVSGTLAGTVTVTSRFTLVPSGRADGVTVTCKVEHESFEEPALIPVTLSVRYPPEVSISGYDDNWYLGRTDATLSCDVRSNPEPTGYDWSTTSGTFPTSAVAQGSQLVIHAVDSLFNTTFVCTVTNAVGMGRAEQVIFVRETPNTAGAGAT', 0.743),
  ('ADP280 (protein, also: human Fc-tagged dimer) TPPNAIVFTYGHLKVADMVKTGVIMNIIGVFCVFLAVNTWGRAIFDLDHFPDWANVTHIET', 0.749),
  ('ADP292 (protein, bait human Fc-tagged dimer) MARPGSAQRWAAVAGRWGCRLLALLLLVPGPGGASEITFELPDNAKQCFYEDIAQGTKCTLEFQVITGGHYDVDCRLEDPDGKVLYKEMKKQYDSFTFTASKNGTYKFCFSNEFSTFTHKTVYFDFQVGEDPPLFPSENRVSALTQMESACVSIHEALKSVIDYQTHFRLREAQGRSRAEDLNTRVA', 1.08),
  ('ADP261 (protein, bait human Fc-tagged dimer) KWETKNCSVSSTNANDITQSLTGKGNDSEEEMRFQEVFMEHMSNMEKRIQHILDMEANLMDTEHFQNFSMTTDQRFNDILLQLSTLFSSVQGHGNAIDEISKSLISLNTTLLDLQLNIENLNGKIQENTFKQQEEISKLEERVYNVSAEIMAMKEEQVHLEQEIKGEVKVLNNITNDLRLKDWEHSQTLRNITLIQGPPGPPGEKGDRGPTGESGPRGFPGPIGPPGLKGDRGAIGFPGSRGLPGYAGRPGNSGPKGQKGEKGSGNTLTPFTKVRLVGGSGPHEGRVEILHSGQWGTICDDRWEVRVGQVVCRSLGYPGVQAVHKAAHFGQGTGPIWLNEVFCFGRESSIEECKIRQWGTRACSHSEDAGVTCTL', 0.837);

Measured values drawn from paper PMC11098746 for this set.
